Overview of recorded EC50 for various molecules
# Test system: BJeLR fibroblast viability, Alamar Blue fluorescence, 48 h
# experimental_details: BJeLR fibroblast growth inhibition, viability readout – cell-based, alamar blue fluorescence, 48 h, cherrypicked samples, dose response (AID 2610);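 also: BJ fibroblasts with hTERT plus SV40 large and small T and HRAS V12; EC50 for loss of viable cells so potency reflects cytotoxic compounds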
Records with an inconclusive call do not appear. Activity calls are given as the source filed them.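 The calls were made as follows: active = EC50 no more than tenfold above the top concentration tested, with valid fit and all samples agreeing; inconclusive = flat fit at 30 to 70% inhibition, poor fit, or split samples; inactive = EC50 beyond tenfold the top concentration tested.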

>  <molecule>
COc1cccc(N2CCN(C(=O)c3ccc(CS(=O)c4ccc(C)cc4)o3)CC2)c1 (stereo unspecified)

>  <EC50>
165 nM

$$$$
>  <molecule>
COc1cc2c(cc1OC)C(c1cc(Br)ccc1F)N(C(=O)CCl)CC2 (stereo unspecified)

>  <EC50>
1310 nM

$$$$
>  <molecule>
COc1ccc(N=C2S/C(=C\c3ccc(Cl)c([N+](=O)[O-])c3)C(=O)N2CCN(C)C)cc1

>  <EC50>
1370 nM

$$$$
>  <molecule>
CCC(C)C(=O)OCC1(c2ccc(C)cc2OC(=O)C(C)C)CO1 (stereo unspecified)

>  <EC50>
> 13300 nM (inactive)

$$$$
>  <molecule>
COc1ccc(N(C(=O)CCl)C(C(=O)NCCc2ccccc2)c2cccs2)cc1 (stereo unspecified)

>  <EC50>
428 nM

$$$$
>  <molecule>
O=C(c1cc([N+](=O)[O-])ccc1N1CCOCC1)N1CCN(c2ccccc2)CC1

>  <EC50>
< 104 nM

$$$$
>  <molecule>
O=C(Oc1ccc(-c2nc(-c3ccccn3)no2)cc1)c1ccccc1

>  <EC50>
> 13300 nM (inactive)

$$$$
>  <molecule>
Cc1c(C(=O)OCC(=O)N2CC(=O)Nc3ccccc32)oc2ccc(Br)cc12

>  <EC50>
> 13300 nM (inactive)

$$$$
>  <molecule>
COc1cc2c(c(OC)c1OC)-c1ccc(N(C)CC(OC)OC)c(=O)cc1[C@@H](NC(C)=O)CC2

>  <EC50>
180 nM

$$$$
>  <molecule>
O=C(c1ccc2c3n(nc2c1)-c1ccccc1CO3)N1CCCCC1

>  <EC50>
> 13300 nM (inactive)

$$$$
>  <molecule>
ClC1=C(Cl)C(Cl)=C(Cl)C1=C/C=C/c1ccccc1

>  <EC50>
1040 nM

$$$$
>  <molecule>
O=C1/C(=C/c2ccncc2)CCC/C1=C\c1ccncc1

>  <EC50>
539 nM

$$$$
>  <molecule>
COc1cccc(/C=C2\SC(=S)N(CCCC(=O)N(CCO)c3ccccc3)C2=O)c1

>  <EC50>
2530 nM

$$$$
>  <molecule>
CCOC(=O)C1CCN(S(=O)(=O)c2c(Cl)ccc3nonc23)CC1

>  <EC50>
407 nM

$$$$
>  <molecule>
CC1=CC(=O)C=C(C)C1=NOc1ccccc1[N+](=O)[O-]

>  <EC50>
670 nM

$$$$
>  <molecule>
CCN1C(=O)C(=Cc2cccc(OC)c2Oc2ccc([N+](=O)[O-])cc2[N+](=O)[O-])SC1=S

>  <EC50>
1050 nM

$$$$
>  <molecule>
COc1ccc(C2C(O)C(c3c[nH]c4ccccc34)=NN2C(=O)CCl)cc1 (stereo unspecified)

>  <EC50>
307 nM

$$$$
>  <molecule>
CC(=O)c1ccccc1OCCOCCOCCOc1ccccc1C(C)=O

>  <EC50>
> 13300 nM (inactive)

$$$$
>  <molecule>
CCCCN=C[C@]12CCC(O)CC1(O)CCC1[C@@H]2CC[C@]2(C)[C@H](C3C=CC(=O)O3)CCC12O (stereo partly specified)

>  <EC50>
315 nM

$$$$
>  <molecule>
COc1ccc(/C=N/NC(=O)c2[nH]c3ccc(Br)cc3c2-c2ccccc2)cc1

>  <EC50>
< 70.3 nM

$$$$
>  <molecule>
Cn1cnc([N+](=O)[O-])c1Sc1ncnc2nc[nH]c12

>  <EC50>
> 13300 nM (inactive)

$$$$
